These entries and their values trace back to paper PMC5666514.

I'd appreciate it if you could supply pIC50 values for the items below.
# System: HT-29 colon adenocarcinoma cells
# assay_notes: cells
# Type: cell-based, human
# measurement_parameters: 24 h
*1 amine or outer side, *2 acyl side, *3 side chain or, on linkers, in order; H or OH if unused. Where a SMILES comes first, the peptide text is derived from it. [ ]: non-standard residue; d: D form. The star is where a group is joined. Quinoxaline2carbonyl = O=C(c1cnc2ccccc2n1)*; Ethylenediamine = C(CN[*:2])N[*:1]; NMeV = CN[C@H](C(=O)O)C(C)C; NMeAbu = CC[C@H](NC)C(=O)O
One number for each entry, as −log10 of the molar value.

{"compound": "CC[C@H](C)[C@H](NC(=O)CNC(=O)[C@H]1CCCN1C(=O)[C@@H](NC(=O)[C@H](C(C)C)N(C)C(=O)[C@H](CC)N(C)C(=O)[C@@H](CO)NC(=O)c1cnc2ccccc2n1)[C@@H](C)CC)C(=O)N(C)[C@H](C(=O)N(C)[C@@H](CC)C(=O)NCCNC(=O)c1cnc2ccccc2n1)C(C)C [RZ11] (Quinoxaline2carbonyl-[dS][NMeAbu][NMeV]I[dP]GI[NMeV][NMeAbu]-{Ethylenediamine-Quinoxaline2carbonyl})", "measured_target": "HT-29 colon adenocarcinoma cells", "pIC50": 4.19}

Qu. Please supply the value of reported pIC50 for the item CC[C@@H](C(=O)NCCNC(=O)c1cnc2ccccc2n1)N(C)C(=O)[C@H](C(C)C)N(C)C(=O)[C@@H](NC(=O)CNC(=O)[C@H]1CCCN1C(=O)[C@@H](NC(=O)[C@H](C(C)C)N(C)C(=O)[C@H](CC)N(C)C(=O)[C@@H](CO)NC(=O)c1cnc2ccccc2n1)[C@@H](C)O)[C@@H](C)O [RZ7] (Quinoxaline2carbonyl-[dS][NMeAbu][NMeV]T[dP]GT[NMeV][NMeAbu]-{Ethylenediamine-Quinoxaline2carbonyl})
Ans. 4.04
